Test system: SK-MEL-5 melanoma
Assay: NCI-60 one-dose screen, 48 h
Conditions: 10 µM unless noted
About 83,000 compounds went through this panel and 20% of them were active in at least one assay; those are over-represented in the sample as a whole. Active and inactive are the calls of the source. Rule for the calls: active = growth percent below 10; inactive = the rest.
Please state which outcome applies, choosing from active, inactive

Solved entries (count: 8):
MOLECULE	GROUP
Clc1ccc(-c2nc(C(Cl)Cl)nc3cc(-c4ccccc4)nn23)cc1	inactive
COC(=O)c1c2c(c[n+]([O-])c1C)C(=O)C=C(NCc1ccccc1)C2=O	active
COC1/C=C/OC2(C)Oc3c(C)c(O)c4c(O)c(c(/C=N/N(c5ccccc5)c5ccccc5)c(O)c4c3C2=O)NC(=O)C(C)=C/C=C/C(C)C(O)C(C)C(O)C(C)C(OC(C)=O)C1C (centres undefined)	active
COc1cc(C[C@H]2COc3cc(O)cc(O)c3C2=O)ccc1O	inactive
COc1ccc(-c2cc(C(=O)N3N=C(c4ccc(N)cc4)CC3c3ccc(Cl)cc3)c3ccccc3n2)cc1 (centres undefined)	inactive
CCOC(=O)C1=C(CC(O)c2ccc(OC)cc2OC)NC(=O)NC1c1ccccc1 (centres undefined)	inactive
Cc1ccc(OCCOCCOCCOCCOCCOc2ccc(C)n(O)c2=S)c(=S)n1O	active
COc1cc(C=Nc2oc(-c3ccccc3)c(-c3ccccc3)c2C#N)cc(CN2CCCC2)c1O	inactive

API: the following record is the query input.
Input line: Called result for `COc1ccc(C(=O)C/C(=C\c2ccc(O)c(OC)c2)C(=O)NN)cc1`
Output line: inactive
